meta.source: ChEMBL document CHEMBL1157386

# Tested on: HepG2
# METHOD_SUMMARY: Cytotoxicity against human HepG2 cells by MTT assay
# Assay type: functional, cell-based
Activity calls are given as the source filed them. No cut-off for these calls is given here.
READOUT_LABEL: Activity

{"MOLECULE": "C/C1=C\\CC[C@]2(C)O[C@H]2/C=C(/C(C)(C)O)CC[C@H](C)CC(=O)C1 (relative stereo)", "READOUT_LABEL": "Activity", "OBSERVED_VALUE": "inactive"}
{"MOLECULE": "C/C1=C\\CCC(=O)[C@H](C)/C=C(/C(C)(C)O)CC[C@H](C)CC(=O)C1", "READOUT_LABEL": "Activity", "OBSERVED_VALUE": "inactive"}
{"MOLECULE": "C/C1=C/C(=O)C[C@@H](C)CC/C(C(C)(C)O)=C\\C=C(/C)CCC1", "READOUT_LABEL": "Activity", "OBSERVED_VALUE": "inactive"}
{"MOLECULE": "C/C1=C\\C=C(\\C(C)(C)O)CC[C@H](C)CC(=O)C/C(C)=C/CC1", "READOUT_LABEL": "Activity", "OBSERVED_VALUE": "inactive"}

Here is another molecule to look at.
Ask: Give its Activity value. Item: CO[C@@]1(C(C)(C)O)/C=C/[C@](C)(O)CC/C=C(\C)CC(=O)C[C@@H](C)CC1 (relative stereo)
Result: inactive
